Reported inhibition zone (IZ) values for a set of molecules
Tested on: Escherichia coli
Experiment summary: Antibacterial activity against Escherichia coli at 20 umol/ml after 24 hrs by Kirby-Bauer's disk diffusion assay
Assay type: functional

{"Molecule": "COc1cc(/C=C/C(=O)CC(=O)/C=C/c2ccc(OC(=O)[C@@H](N)C(C)C)c(OC)c2)ccc1OC(=O)[C@@H](N)C(C)C", "System tested": "Escherichia coli", "inhibition zone (IZ), mm": 20}
{"Molecule": "COc1cc(/C=C/C(=O)CC(=O)/C=C/c2ccc(OC(=O)CN)c(OC)c2)ccc1O [MONOGLYCINOYL CURCUMIN]", "System tested": "Escherichia coli", "inhibition zone (IZ), mm": 12}
{"Molecule": "COc1cc(/C=C/C(=O)CC(=O)/C=C/c2ccc(OC(=O)/C=C/C=C/c3ccc(O)c(O)c3)c(OC)c2)ccc1OC(=O)/C=C/C=C/c1ccc(O)c(O)c1", "System tested": "Escherichia coli", "inhibition zone (IZ), mm": 16}
{"Molecule": "COc1cc(/C=C/C(=O)CC(=O)/C=C/c2ccc(O)c(OC)c2)ccc1O [CURCUMIN]", "System tested": "Escherichia coli", "inhibition zone (IZ), mm": 10}
{"Molecule": "COc1cc(/C=C/C(=O)CC(=O)/C=C/c2ccc(OC(=O)[C@@H](N)C(C)C)c(OC)c2)ccc1O [MONOVALINOYL CURCUMIN]", "System tested": "Escherichia coli", "inhibition zone (IZ), mm": 13}

* * *

Test system: Klebsiella aerogenes
Experiment summary: Antibacterial activity against Klebsiella aerogenes at 20 umol/ml after 24 hrs by Kirby-Bauer's disk diffusion assay
Type: functional
Property: inhibition zone (IZ); scope: individual compounds
Measure name: inhibition zone (IZ) (mm)

{"Mol smiles": "COc1cc(/C=C/C(=O)CC(=O)/C=C/c2ccc(OC(=O)CN)c(OC)c2)ccc1O", "Measure name": "inhibition zone (IZ)", "Observed measurement": 18}
{"Mol smiles": "COc1cc(/C=C/C(=O)CC(=O)/C=C/c2ccc(OC(=O)/C=C/C=C/c3ccc(O)c(O)c3)c(OC)c2)ccc1OC(=O)/C=C/C=C/c1ccc(O)c(O)c1", "Measure name": "inhibition zone (IZ)", "Observed measurement": 11}
{"Mol smiles": "COc1cc(/C=C/C(=O)CC(=O)/C=C/c2ccc(OC(=O)[C@@H](N)CCC(=O)O)c(OC)c2)ccc1OC(=O)[C@@H](N)CCC(=O)O", "Measure name": "inhibition zone (IZ)", "Observed measurement": 9}
{"Mol smiles": "O=C(O)/C=C/C=C/c1ccc2c(c1)OCO2", "Measure name": "inhibition zone (IZ)", "Observed measurement": 8}
{"Mol smiles": "COc1cc(/C=C/C(=O)CC(=O)/C=C/c2ccc(OC(=O)[C@@H](N)C(C)C)c(OC)c2)ccc1O", "Measure name": "inhibition zone (IZ)", "Observed measurement": 18}

* * *

Test system: Escherichia coli
Experiment summary: Antibacterial activity against Escherichia coli after 18 hrs by broth microdilution susceptibility test
Assay type: functional
This listing pairs compounds with measured MIC.
Measure name: MIC (mM)

{"Mol smiles": "COc1cc(/C=C/C(=O)CC(=O)/C=C/c2ccc(OC(=O)[C@@H](N)C(C)C)c(OC)c2)ccc1O", "Output unit": "mM", "Observed measurement": 10}
{"Mol smiles": "COc1cc(/C=C/C(=O)CC(=O)/C=C/c2ccc(OC(=O)CN)c(OC)c2)ccc1O", "Output unit": "mM", "Observed measurement": 20}
{"Mol smiles": "COc1cc(/C=C/C(=O)CC(=O)/C=C/c2ccc(OC(=O)[C@@H](N)C(C)C)c(OC)c2)ccc1OC(=O)[C@@H](N)C(C)C", "Output unit": "mM", "Observed measurement": 5}
{"Mol smiles": "COc1cc(/C=C/C(=O)CC(=O)/C=C/c2ccc(O)c(OC)c2)ccc1O", "Output unit": "mM", "Observed measurement": 20}
{"Mol smiles": "COc1cc(/C=C/C(=O)CC(=O)/C=C/c2ccc(OC(=O)/C=C/C=C/c3ccc(O)c(O)c3)c(OC)c2)ccc1OC(=O)/C=C/C=C/c1ccc(O)c(O)c1", "Output unit": "mM", "Observed measurement": 10}
{"Mol smiles": "COc1cc(/C=C/C(=O)CC(=O)/C=C/c2ccc(OC(=O)CN)c(OC)c2)ccc1OC(=O)CN", "Output unit": "mM", "Observed measurement": 20}
